Data provenance is the supplement of paper PMC10646978.

Can you tell me NF-kB reporter for the items I'm about to list?
Test system: RAW-Dual (murine macrophage reporter line)
Test: NF-kB reporter (SEAP) activity fold change vs agonist alone; higher = enhanced NF-kB activity
Settings: modulator concentration 10 µM; agonist: MPLA […]
Give your answer as a number; write no unit.

Sample "O=C(O)c1ccccc1" — what was its NF-kB reporter?
0.974

Sample "CCCOc1cccc(C=C2N=C(c3ccc(Cl)c([N+](=O)[O-])c3)OC2=O)c1" — what was its NF-kB reporter?
0.912

Sample CCCCCN(CCCCC)C(=O)C(CCC(=O)[O-])NC(=O)c1ccc(Cl)c(Cl)c1 (stereo not given) — what was its NF-kB reporter?
0.901

Sample Cl.Fc1ccc(C2CCNCC2COc2ccc3c(c2)OCO3)cc1 (stereo not given) — what was its NF-kB reporter?
0.918

Sample CC1(C)CC(=O)C2=C(C1)OC(N)=C(C#N)C21C(=O)Nc2ccc(Br)cc21 (stereo not given) — what was its NF-kB reporter?
0.955

Sample CCN(CC)CCN1C(=O)C(O)=C(C(=O)c2ccc(C)cc2)C1c1ccccc1 (stereo not given) — what was its NF-kB reporter?
0.893

Sample "COc1ccc(-c2nc(CNC(=O)C3CCN(c4cc(C5CC5)ncn4)CC3)cs2)cc1" — what was its NF-kB reporter?
1.16

Sample "O=C(NC(=S)Nc1ccc2[nH]c(=O)[nH]c2c1)c1ccc(F)cc1" — what was its NF-kB reporter?
0.933

Sample CC(=O)N1CCC(C(=O)N2CCOCC2CN(C)C)CC1.O=CO (stereo not given) — what was its NF-kB reporter?
0.924

Sample "Clc1cccc(C=Nc2ccc(N=Cc3cccc(Cl)c3Cl)cc2)c1Cl" — what was its NF-kB reporter?
1

---

Tested on: RAW-Dual (murine macrophage reporter line)
Test: NF-kB reporter (SEAP) activity fold change vs agonist alone; higher = enhanced NF-kB activity
Conditions: modulator concentration 10 µM; agonist: CpG ODN 1826 0.5 ug/mL
# if value of NF-kB reporter reaches 1, tag yes; if it stays below, tag no

Reported NF-kB reporter reaches at least 1 for "Cc1nnc(C)n1N=Cc1ccc(C(F)(F)F)cc1" ?
no

Reported NF-kB reporter reaches at least 1 for "CN1CCC(=C2c3ccccc3C=Cc3ccccc32)CC1.Cl" ?
no

Reported NF-kB reporter reaches at least 1 for "Nc1nc(NC2CC2)c2ncn([C@H]3C=C[C@@H](CO)C3)c2n1" ?
yes

Reported NF-kB reporter reaches at least 1 for "O=C(NC1CCCCCC1)c1ccc([N+](=O)[O-])cc1Cl" ?
yes

Reported NF-kB reporter reaches at least 1 for "CC(C)(C)c1ccc(C(=O)Nc2nc3ccc([N+](=O)[O-])cc3s2)cc1" ?
yes

Reported NF-kB reporter reaches at least 1 for "O=c1oc2c(O)c(O)cc3c(=O)oc4c(O)c(O)cc1c4c23" ?
yes

Reported NF-kB reporter reaches at least 1 for "O=C(CSc1ncnc2c(-c3ccccc3)c[nH]c12)NCc1ccc(Cl)cc1" ?
yes

Reported NF-kB reporter reaches at least 1 for "Cc1cc(OC2CN(C(=O)Cc3c[nH]c4ccccc34)C2)cc(=O)n1C1CC1" ?
yes

---

Test system: RAW-Dual (murine macrophage reporter line)
Assay: viability score (confluency relative to resting cells, overnight) (fraction); higher = more viable, active = viable (0.7 or more)
Settings: modulator concentration 10 µM
value.type: viability score
Give your answer as a number; write no unit.

Sample "Nc1ncnc2c1ncn2[C@@H]1O[C@H](CO)[C@@H](O)[C@@H]1O.O" — what was its viability score?
0.991

Sample "NC(=O)CC[C@@H](N)C(=O)O" — what was its viability score?
1.01

Sample "O=C(CCCCCN1C(=O)c2cccc3cccc(c23)C1=O)NO" — what was its viability score?
0.536

Sample "Clc1ccccc1C=NNc1nc(-c2ccccc2)cc(-c2ccccc2)n1" — what was its viability score?
1

Sample CC(C)c1ccc(NC(=O)C2CCCCC2C(=O)O)cc1 (stereo not drawn) — what was its viability score?
0.996

Sample "Cc1ccc(-n2ncc3c(SCC(=O)NC(C)(C)C)ncnc32)c(C)c1" — what was its viability score?
0.996

Sample NC(Cc1cc(I)c(Oc2cc(I)c(O)c(I)c2)c(I)c1)C(=O)O (stereo not drawn) — what was its viability score?
1

Sample Cn1c2c(c3ccccc31)CCCC2NC=O (stereo not drawn) — what was its viability score?
1

Sample "CCCOc1cccc(C(=O)Nc2cccc(S(N)(=O)=O)c2)c1" — what was its viability score?
1

Sample "CCN(CC)CCNC(=O)c1cc(S(C)(=O)=O)ccc1OC.Cl" — what was its viability score?
0.998

Sample "Cl.Fc1ccc([C@@H]2CCNC[C@H]2COc2ccc3c(c2)OCO3)cc1" — what was its viability score?
0.253

Sample "COc1ccc(CN2CCN(C(c3ccc(F)cc3)c3ccc(F)cc3)CC2)c(OC)c1OC.Cl.Cl" — what was its viability score?
0.985

Sample "CCOc1ccccc1NC(=O)Nc1ccc2c(c1)CCC(=O)N2C" — what was its viability score?
0.933

Sample "O=C(OCCN1CCOCC1)c1ccc(O)cc1O" — what was its viability score?
0.999

Sample "O=C(NCCN1CCN(c2ccc(Cl)cc2)CC1)c1ccncc1" — what was its viability score?
0.998

Sample O=C(Nc1ccccc1Cl)c1ccc(OCC2CCCO2)nc1 (stereo not drawn) — what was its viability score?
0.999

Sample "CCOc1cc(CC(=O)N[C@@H](CC(C)C)c2ccccc2N2CCCCC2)ccc1C(=O)O" — what was its viability score?
0.683

Sample "COc1ccc(N2C(=O)C(=Cc3ccc([N+](=O)[O-])s3)SC2=S)cc1" — what was its viability score?
0.9

Sample Cc1ncc(CC(=O)N2CCC(c3ccccc3Cl)S(=O)(=O)CC2)s1 (stereo not drawn) — what was its viability score?
1

Sample COc1ccc2[nH]c(S(=O)Cc3ncc(C)c(OC)c3C)nc2c1 (stereo not drawn) — what was its viability score?
0.99

Sample CN1CC(O)C2=C/C(=N/NC(N)=O)C(=O)C=C21 (stereo not drawn) — what was its viability score?
0.665

Sample "Cc1cc(CNS(=O)(=O)Cc2ccc(C(F)(F)F)cc2)c(C)o1" — what was its viability score?
0.383

Sample COC(=O)C1=CN(CC2CCCO2)C=C(C(=O)OC)C1c1cccc(OC)c1 (stereo not drawn) — what was its viability score?
0.994

---

Tested on: RAW-Dual (murine macrophage reporter line)
Test: viability score (confluency relative to resting cells, overnight) (fraction); higher = more viable, active = viable (0.7 or more)
Conditions: modulator concentration 10 µM
Mark 1 for viability score under 1, 0 if at or over.

API: query returns whether the compound falls strictly under 1 in viability score. Query: COC1(C)CCC2OC2(C)CCC2C1CC2(C)C (stereo unspecified)
1

API: query returns whether the compound falls strictly under 1 in viability score. Query: "CC1=NN(c2ccc(C)cc2)C(=O)C1=Cc1c(C)nn(-c2ccc(C)cc2C)c1O"
0

API: query returns whether the compound falls strictly under 1 in viability score. Query: "Oc1ccc(N=Cc2ccccc2F)cc1"
1

API: query returns whether the compound falls strictly under 1 in viability score. Query: "Cc1sccc1-c1csc(Nc2cccnc2)n1.Cl"
1

API: query returns whether the compound falls strictly under 1 in viability score. Query: CNC1CCC(c2ccc(Cl)c(Cl)c2)c2ccccc21.Cl (stereo unspecified)
1

API: query returns whether the compound falls strictly under 1 in viability score. Query: CCCOc1ccc(C2NC(=O)NC(C)=C2C(=O)OC(C)C(C)(C)C)cc1OC (stereo unspecified)
1

API: query returns whether the compound falls strictly under 1 in viability score. Query: "COc1ccc(OC)c(Nc2nc(-c3c(C)nc4ncccn34)cs2)c1"
1

API: query returns whether the compound falls strictly under 1 in viability score. Query: CC1(C)CCCC2=C1CC1C(=O)NC(=O)C1C2 (stereo unspecified)
0

API: query returns whether the compound falls strictly under 1 in viability score. Query: "COc1cccc(CC(=O)Nc2ccc(CC(=O)N3CCC(O)CC3)cc2)c1"
1

API: query returns whether the compound falls strictly under 1 in viability score. Query: "CCc1sc2sncc2c1Br"
1

---

Tested on: RAW-Dual (murine macrophage reporter line)
Test: NF-kB reporter (SEAP) activity fold change vs agonist alone; higher = enhanced NF-kB activity
Settings: modulator concentration 10 µM; agonist: LPS 0.1 ug/mL
Class (by NF-kB reporter) -- lo: < 0.9; mid: ≥ 0.9 and < 1; hi: ≥ 1

Could you place "Cn1ccnc1Sc1nc(Nc2cccc(Cl)c2)nc(N2CCOCC2)n1" in its proper category? Many thanks.
hi

Could you place COc1ccc(Nc2nc(N3CCCC(C)C3)nc3[nH]ncc23)cc1 (stereo unspecified) in its proper category? Many thanks.
lo

Could you place "Brc1ccc(CN2C3=NCCCN3c3ccccc32)cc1.Cl" in its proper category? Many thanks.
lo

Could you place Brc1ccc(C(Cc2ccccc2)Nc2ccccn2)cc1 (stereo unspecified) in its proper category? Many thanks.
hi

Could you place "O=C1CN(/N=C/c2ccc([N+](=O)[O-])o2)C(=O)N1" in its proper category? Many thanks.
hi

Could you place OCC(O)CN1CCN(c2ccccc2)CC1 (stereo unspecified) in its proper category? Many thanks.
hi

Could you place CN1CCN2c3ncccc3Cc3ccccc3C2C1 (stereo unspecified) in its proper category? Many thanks.
hi

Could you place "CCn1c2ccccc2c2cc(CNCCc3ccc(OC)cc3)ccc21" in its proper category? Many thanks.
lo

Could you place "Cc1oncc1C(=O)Nc1ccc(C(F)(F)F)cc1" in its proper category? Many thanks.
hi

Could you place "Cc1cc(NC2CCCC2)nc2ccccc12" in its proper category? Many thanks.
hi

Could you place "O=C1C(=Cc2ccncc2)CCC1=Cc1ccncc1" in its proper category? Many thanks.
mid

Could you place "COc1ccc(N(CC(=O)Nc2ccc3ccccc3c2)S(C)(=O)=O)cc1OC" in its proper category? Many thanks.
hi

Could you place "CC1(C)CC(=O)C=C(Nc2ccc(Br)c(Cl)c2)C1" in its proper category? Many thanks.
mid

Could you place "COc1cc(=O)n(C)cc1C(=O)Nc1cccnc1" in its proper category? Many thanks.
lo

Could you place COc1ccc(C(C)NC(=O)CCc2nnc3ccc(-c4ccc(C)c(C)c4)nn23)cc1OC (stereo unspecified) in its proper category? Many thanks.
hi

Could you place "c1ccc(CSc2nnc(-c3cccnc3)o2)nc1" in its proper category? Many thanks.
hi

Could you place "Fc1ccc(Oc2nc(Nc3cccc(Cl)c3)nc(N3CCOCC3)n2)cc1" in its proper category? Many thanks.
hi

Could you place "Cc1cn([C@H]2C=C[C@@H](CO)O2)c(=O)[nH]c1=O" in its proper category? Many thanks.
hi

Could you place "COC(=O)C1=C(C)NC(C)=C(C(=O)OC)C1c1ccc(-c2ccc(Cl)cc2Cl)o1" in its proper category? Many thanks.
mid

Could you place "CN1CCN(c2nc(C3=C(c4c[nH]c5ccccc45)C(=O)NC3=O)c3ccccc3n2)CC1" in its proper category? Many thanks.
mid

Could you place "CCOc1nc2cccc(C(=O)O)c2n1Cc1ccc(-c2ccccc2-c2nn[nH]n2)cc1" in its proper category? Many thanks.
hi

Could you place "CN1CCN(CCOc2cc(OC3CCOCC3)c3c(Nc4c(Cl)ccc5c4OCO5)ncnc3c2)CC1" in its proper category? Many thanks.
hi

Could you place "COc1cccc(-c2ccc(NC(=O)C3=C(C(=O)O)CCC3)c(F)c2)c1" in its proper category? Many thanks.
lo

Could you place "CC(C)(C)C1=CC2(C=C(C(C)(C)C)C1=O)Nc1cccc3cccc(c13)N2" in its proper category? Many thanks.
hi

Could you place "CCC(=O)Nc1ccc(NC(=O)c2ccc([N+](=O)[O-])cc2)cc1" in its proper category? Many thanks.
hi

Could you place Cc1ccc(N2CC(C(=O)NCC3CCCO3)CC2=O)cc1 (stereo unspecified) in its proper category? Many thanks.
mid

Could you place COC(=O)CCc1ccc(OCC(O)CNC(C)C)cc1 (stereo unspecified) in its proper category? Many thanks.
hi

Could you place "CC(C)(O)CNC(=O)c1cccc([N+](=O)[O-])c1" in its proper category? Many thanks.
mid

Could you place "Nc1nc(=O)n([C@@H]2CS[C@H](CO)O2)cc1F" in its proper category? Many thanks.
hi

Could you place CCOc1ccc(C(CN)N2CCOCC2)cc1 (stereo unspecified) in its proper category? Many thanks.
mid
